So I've got a bunch of sequences here, and I need their apparent KD of MS2 coat protein values.
- Tested on: MS2 coat protein
- ASSAY_SUMMARY: apparent KD of MS2 coat protein; designed switch direction (-1 OFF switch, 1 ON switch): -1; higher = weaker reporter binding
- MEASUREMENT_SETUP: input ligand: none
Answers are plain numbers, in nM.

Batch lookup, apparent KD of MS2 coat protein per entry.
1. GUUGUUUAUGUAGGAUAUGCAAGGCGAGCCUAAGCAGAAGGACAUGAGGAUCACCCAUGUAUUGCGGUCUGCGUUCAGAUCGCU [salish99_ExNG1_r4_015] (Eterna round: R96, puzzle: Exclusion NG 1)
2. UAUUACCUAGGAUAUACAUGAGGAUCACCCAUGUCACGGGUCAACUUGUCCUAUGCGUGUAGAAGGAGGGACCC [JL Ceriza mod 6] (Eterna round: R96, puzzle: Exclusion 3)
3. AAGCUUUUUGGUGACCUCGACAUGAGGAUCACCCAUGUCGUAUUAGAACUUCGGACGAUGAUCGUGCUCGUCAUAAG [Eternabot (Original) Solution 43] (Eterna round: R97, puzzle: Sensor, turn-off variant 1)
4. CAGCCAAGUGUGAGGAUAUGGCGAUUGCAUUGACGUCAGAAGGCACAUGAGGAUCACCCAUGUGAGGUGGAUGA [Eternabot (L2) Solution 25] (Eterna round: R97, puzzle: Brourd's mod of Exclusion 4)
5. GCGGACUAGAACGUGAGUUCUGAGACAUGAGGAUCACCCAUGUAGGAUAUCGAUUCGAAACGAAUCGAGAAGGGCAUAGUCCGC [JL denovo 11] (Eterna round: R96, puzzle: Exclusion NG 3)
6. CUAGUAUAUCAGGAUAUGAUUUUAUAUAGUUGAUCAGAAGGGAUAACAUGAGGAUCACCCAUGUUAAGGAGUGA [JR_Ex6_Sub042] (Eterna round: R97, puzzle: Exclusion 6)

Result:
1. 25.9
2. 25.4
3. 677
4. 755
5. 17.7
6. 38.7

// for each sequence below, give its apparent KD of MS2 coat protein
1. AAAAUACAUGAGGAUCACCCAUGUGAGGAUAUGAGAGUCAUUUAUAUAUAUUAGAUUCUCAGAAGGCACAUAAA [JR_Ex1_Sub068] (Eterna round: R97, puzzle: Exclusion 1)
2. GAUUGAGAGCAGGAUAUAUUCCUGAUGUAUGAAGUAGAAGGGCUCACAUGAGGAUCACCCAUGUGAUCCUGAAU [JL Dibri mod 17 mod] (Eterna round: R97, puzzle: Exclusion 6)
3. CUAGAUCUUCGGAUCUAGGACAUGAGGAUCACCCAUGUCACGAGCAGAUCUUCAUGCAAGCUUUUUGCUCGUCUUAU [Sensor v3 - Turn-off variant 1 - 37] (Eterna round: R96, puzzle: Sensor v3, turn-off variant 1)
4. GGCCUCGCGGUCAGGAUAUAUUGCUGUAAUCAGUGGUAGAAGGGACAUGAGGAUCACCCAUGUACCUAGGACAU [BmEX4 C.20] (Eterna round: R97, puzzle: Brourd's mod of Exclusion 4)
5. GCACGGAGUGUAGGAUAUCUGUGCGAUUAGCUCAGAGAAGGACACAUGAGGAUCACCCAUGUGUAACUCAAUACUCAUCCGUGC [Eli exng1 - 070] (Eterna round: R96, puzzle: Exclusion NG 1)

Result:
53.7
14.3
29.2
18.9
13.9
